# assayedTarget: C4b (UniProt P0C0L4)
# Sequence (P0C0L4 757-1446 limits assumed, chain 1 of 3): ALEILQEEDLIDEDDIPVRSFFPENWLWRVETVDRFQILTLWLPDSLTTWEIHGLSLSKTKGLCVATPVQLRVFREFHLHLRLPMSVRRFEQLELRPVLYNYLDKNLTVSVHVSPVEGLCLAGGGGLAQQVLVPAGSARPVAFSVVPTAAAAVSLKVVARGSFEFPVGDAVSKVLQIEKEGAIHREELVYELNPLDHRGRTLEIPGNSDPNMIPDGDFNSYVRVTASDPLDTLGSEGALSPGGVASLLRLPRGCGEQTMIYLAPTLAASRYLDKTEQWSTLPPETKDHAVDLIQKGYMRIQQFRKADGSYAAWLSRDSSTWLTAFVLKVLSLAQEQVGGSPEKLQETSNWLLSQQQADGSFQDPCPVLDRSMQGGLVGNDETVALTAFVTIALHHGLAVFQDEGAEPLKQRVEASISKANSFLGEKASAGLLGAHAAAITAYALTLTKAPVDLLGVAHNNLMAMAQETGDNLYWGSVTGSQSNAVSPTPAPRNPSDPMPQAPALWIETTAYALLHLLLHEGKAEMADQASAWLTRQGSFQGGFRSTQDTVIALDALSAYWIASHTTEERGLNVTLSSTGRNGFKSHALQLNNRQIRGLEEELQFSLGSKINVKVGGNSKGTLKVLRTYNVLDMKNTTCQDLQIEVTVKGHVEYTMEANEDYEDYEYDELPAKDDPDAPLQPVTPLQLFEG
# Sequence (P0C0L4 20-675 limits assumed, chain 2 of 3): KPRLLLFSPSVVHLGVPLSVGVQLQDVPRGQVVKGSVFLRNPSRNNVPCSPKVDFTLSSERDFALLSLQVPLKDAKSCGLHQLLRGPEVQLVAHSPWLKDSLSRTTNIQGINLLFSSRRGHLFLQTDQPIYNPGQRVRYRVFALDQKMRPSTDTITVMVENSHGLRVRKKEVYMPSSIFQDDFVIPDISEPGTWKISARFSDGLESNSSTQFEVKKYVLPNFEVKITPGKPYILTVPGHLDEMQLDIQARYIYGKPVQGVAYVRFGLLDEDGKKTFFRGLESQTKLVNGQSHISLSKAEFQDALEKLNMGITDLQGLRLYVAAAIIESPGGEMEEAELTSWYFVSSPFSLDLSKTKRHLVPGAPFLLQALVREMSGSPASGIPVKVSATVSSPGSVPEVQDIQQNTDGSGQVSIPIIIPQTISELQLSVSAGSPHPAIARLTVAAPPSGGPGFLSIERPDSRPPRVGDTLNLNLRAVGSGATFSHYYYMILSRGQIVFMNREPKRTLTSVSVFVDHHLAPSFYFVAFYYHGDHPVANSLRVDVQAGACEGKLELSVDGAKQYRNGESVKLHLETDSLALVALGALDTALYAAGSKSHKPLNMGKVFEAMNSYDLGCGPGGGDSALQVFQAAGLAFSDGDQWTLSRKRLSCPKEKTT
# Sequence (P0C0L4 1454-1744 limits assumed, chain 3 of 3): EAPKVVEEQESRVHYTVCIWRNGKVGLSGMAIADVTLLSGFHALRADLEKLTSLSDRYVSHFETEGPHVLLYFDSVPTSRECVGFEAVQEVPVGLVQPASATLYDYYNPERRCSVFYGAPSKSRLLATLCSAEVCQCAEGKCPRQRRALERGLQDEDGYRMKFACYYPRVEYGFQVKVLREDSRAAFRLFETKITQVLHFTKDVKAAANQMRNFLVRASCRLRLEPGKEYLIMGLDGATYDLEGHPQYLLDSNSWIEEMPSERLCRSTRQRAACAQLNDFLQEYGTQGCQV
# protocolDetails: cell-based or functional assay
quantityName: C4b CFA: Time (min.) for 50% cleavage of C4B α′-chain (min)
Kindly provide the numeric value in min only, without the unit symbol.

Previously resolved entries follow.
* D2D3M3M4 (L205K) (protein) CEVPTRLNSASLKQPYITQNYFPVGTVVEYECRPGYRREPSLSPKLTCLQNLKWSTAVEFCKKKSCPNPGEIRNGQIDVPGGILFGATISFSCNTGYKLFGSTSSFCKISGSSVQWSDPLPECREIYCTPPPKIKNGKHTFSEVEVFEYLDAVTYSCDPAPGPDPFSLIGESTIYCGDNSVWSRAAPECKVVKCRFPVVENGKQISGFGKKFYYKATVMFECDKGFYLDGSDTIVCDSNSTWDPPVPKCLKVL | 433
* D2D3M3M4 (P216K) (protein) CEVPTRLNSASLKQPYITQNYFPVGTVVEYECRPGYRREPSLSPKLTCLQNLKWSTAVEFCKKKSCPNPGEIRNGQIDVPGGILFGATISFSCNTGYKLFGSTSSFCLISGSSVQWSDKLPECREIYCTPPPKIKNGKHTFSEVEVFEYLDAVTYSCDPAPGPDPFSLIGESTIYCGDNSVWSRAAPECKVVKCRFPVVENGKQISGFGKKFYYKATVMFECDKGFYLDGSDTIVCDSNSTWDPPVPKCLKVL | 93.3
* D2D3M3M4 (Multi-5) or DCP (decay-cofactor protein) (protein) CEVPTRLNSASLKQPYITQNYFPVGTVVEYECRPGYRREPSLSPKLTCLQNLKWSTAVEFCKKKSCPNPGEIRNGQIDVPGGILFGATISFSCNTGYKLIGSTSSFCLISGSSVQWSDKLPICEKVLCTPPPKIKNGKHTFSEVEVFEYLDAVTYSCDPAPGPDPFSLIGESTIYCGDNSVWSRAAPECKVVKCRFPVVENGKQISGFGKKFYYKATVMFECDKGFYLDGSDTIVCDSNSTWDPPVPKCLKVL | 3.1
* D2D3M3M4 (F197I) (protein) CEVPTRLNSASLKQPYITQNYFPVGTVVEYECRPGYRREPSLSPKLTCLQNLKWSTAVEFCKKKSCPNPGEIRNGQIDVPGGILFGATISFSCNTGYKLIGSTSSFCLISGSSVQWSDPLPECREIYCTPPPKIKNGKHTFSEVEVFEYLDAVTYSCDPAPGPDPFSLIGESTIYCGDNSVWSRAAPECKVVKCRFPVVENGKQISGFGKKFYYKATVMFECDKGFYLDGSDTIVCDSNSTWDPPVPKCLKVL | 96.7
* D2D3M3M4 (T200Y) (protein) CEVPTRLNSASLKQPYITQNYFPVGTVVEYECRPGYRREPSLSPKLTCLQNLKWSTAVEFCKKKSCPNPGEIRNGQIDVPGGILFGATISFSCNTGYKLFGSYSSFCLISGSSVQWSDPLPECREIYCTPPPKIKNGKHTFSEVEVFEYLDAVTYSCDPAPGPDPFSLIGESTIYCGDNSVWSRAAPECKVVKCRFPVVENGKQISGFGKKFYYKATVMFECDKGFYLDGSDTIVCDSNSTWDPPVPKCLKVL | 513
* D2D3M3M4 (S199K) (protein) CEVPTRLNSASLKQPYITQNYFPVGTVVEYECRPGYRREPSLSPKLTCLQNLKWSTAVEFCKKKSCPNPGEIRNGQIDVPGGILFGATISFSCNTGYKLFGKTSSFCLISGSSVQWSDPLPECREIYCTPPPKIKNGKHTFSEVEVFEYLDAVTYSCDPAPGPDPFSLIGESTIYCGDNSVWSRAAPECKVVKCRFPVVENGKQISGFGKKFYYKATVMFECDKGFYLDGSDTIVCDSNSTWDPPVPKCLKVL | 181

Q: Query: C4b CFA: Time (min.) for 50% cleavage of C4B α′-chain; subject: D2D3M3M4 (Multi-1) (protein) CEVPTRLNSASLKQPYITQNYFPVGTVVEYECRPGYRREPSLSPKLTCLQNLKWSTAVEFCKKKSCPNPGEIRNGQIDVPGGILFGATISFSCNTGYKLFGSTSSFCLISGSSVQWSDPLPICEKVLCTPPPKIKNGKHTFSEVEVFEYLDAVTYSCDPAPGPDPFSLIGESTIYCGDNSVWSRAAPECKVVKCRFPVVENGKQISGFGKKFYYKATVMFECDKGFYLDGSDTIVCDSNSTWDPPVPKCLKVL
Ans: 493

Q: Query: C4b CFA: Time (min.) for 50% cleavage of C4B α′-chain; subject: D2D3M3M4 (T192E) (protein) CEVPTRLNSASLKQPYITQNYFPVGTVVEYECRPGYRREPSLSPKLTCLQNLKWSTAVEFCKKKSCPNPGEIRNGQIDVPGGILFGATISFSCNEGYKLFGSTSSFCLISGSSVQWSDPLPECREIYCTPPPKIKNGKHTFSEVEVFEYLDAVTYSCDPAPGPDPFSLIGESTIYCGDNSVWSRAAPECKVVKCRFPVVENGKQISGFGKKFYYKATVMFECDKGFYLDGSDTIVCDSNSTWDPPVPKCLKVL
Ans: 268
